Experiment: Pharmacokinetic study after single i.g. or i.v. administration to rats
Assay type: in vivo
Details: rat, plasma, iv, single 6.4 mg/kg, mean ± SD, n = 6
property.measured: half-life (min)

>>> print(df.to_string())
                                        mol  property_measured  readout_value
0  COc1ccc(C(C)=O)c(OCCCCN2CCN(C(=O)C=Cc3ccc(Cn4ccnc4)cc3)CC2)c1          half-life            125

###

Experiment: Pharmacokinetic study after single i.g. or i.v. administration to rats
Assay type: in vivo
Conditions: rat, plasma, iv, single 6.4 mg/kg, mean ± SD, n = 6, read-out: MRT (0-t) (converted)
property.measured: MRT last (h)

In [3]: df
Out[3]:
                                        mol  property_measured  readout_value
0  COc1ccc(C(C)=O)c(OCCCCN2CCN(C(=O)C=Cc3ccc(Cn4ccnc4)cc3)CC2)c1           MRT last            2.5

###

Assay: Pharmacokinetic study after single i.g. or i.v. administration to rats
Type: in vivo
Details: rat, plasma, po, i.g., single 6.4 mg/kg, mean ± SD, n = 6, read-out: MRT (0-t) (converted)
property.measured: MRT last

>>> df
                                   compound  property_measured  readout_value
0  COc1ccc(C(C)=O)c(OCCCCN2CCN(C(=O)C=Cc3ccc(Cn4ccnc4)cc3)CC2)c1 [PNC3]           MRT last         5.28 h

###

Experiment: Pharmacokinetic study after single i.g. or i.v. administration to rats
Type: in vivo
Details: rat, plasma, po, 6.4 mg/kg, i.g., read-out: time of peak concentration in the blood
property.measured: Tmax

                                        mol  readout_value
0  COc1ccc(C(C)=O)c(OCCCCN2CCN(C(=O)C=Cc3ccc(Cn4ccnc4)cc3)CC2)c1            1 h

###

Experiment: Pharmacokinetic study after single i.g. or i.v. administration to rats
Type: in vivo
Conditions: rat, plasma, po, i.g., single 6.4 mg/kg, mean ± SD, n = 6
property.measured: half-life (h)

>>> df
                                        mol  property_measured  readout_value
0  COc1ccc(C(C)=O)c(OCCCCN2CCN(C(=O)C=Cc3ccc(Cn4ccnc4)cc3)CC2)c1          half-life           4.85
